Values were extracted from patent US20040110821A1.

Target: human GAL3 receptor (Homo sapiens, UniProt O60755)
Construct: expressed in transfected cells
Sequence (O60755 whole entry): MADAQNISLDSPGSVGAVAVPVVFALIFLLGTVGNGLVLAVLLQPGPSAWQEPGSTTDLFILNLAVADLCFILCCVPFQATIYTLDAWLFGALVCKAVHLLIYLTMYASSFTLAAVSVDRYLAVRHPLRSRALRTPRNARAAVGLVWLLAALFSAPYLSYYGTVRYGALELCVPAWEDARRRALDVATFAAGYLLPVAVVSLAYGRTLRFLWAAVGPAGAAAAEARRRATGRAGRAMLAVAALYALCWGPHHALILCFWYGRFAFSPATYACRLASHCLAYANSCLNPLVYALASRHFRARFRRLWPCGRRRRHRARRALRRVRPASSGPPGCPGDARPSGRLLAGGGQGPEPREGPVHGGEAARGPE
Assay: Radioligand binding at cloned human GAL3 receptor
Details: Table 7; read-out: hGAL3 Ki
attributeMeasured: pKi
Worth noting: pKi values are minus log10 of concentrations stated in mol/L.

Field: pKi (human GAL3 receptor (Homo sapiens, UniProt O60755)). Entry: `O=C1C(=Nc2cccc(C(F)(F)F)c2)c2ccccc2N1c1ccccc1`
7.42

###

Measured Climbing values are reported for all entries that follow.
Tested on: Male Sprague-Dawley rats
Assay: Rat Forced Swim Test (FST)
Format: in vivo
Settings: 3 mg/kg p.o., single administration 1 hr before 5 min test
Give a bare numeral; the unit counts is implied.

Reference set (2 entries):
>>> print(df.to_string())
                                   compound  numericreadout
0  Cc1ccc(Nc2cc(N3CCCCC3)nc(N3CCN(c4ncccc4C(F)(F)F)CC3)n2)cc1             4.3
1  Cc1ccc(Nc2cc(N3CCCCC3)nc(N(C)CCc3ccccc3)n2)cc1             2.0

Test system Male Sprague-Dawley rats; read-out Climbing; what value for CN(C)c1cc(Nc2ccc(Cl)c(Cl)c2)nc(N2CCN(Cc3ccccc3)CC2)n1 [EX151] ?
2.4

###

Target: human α2A adrenergic receptor (Homo sapiens)
Construct: expressed in transfected cells
Sequence (P08913 1-465): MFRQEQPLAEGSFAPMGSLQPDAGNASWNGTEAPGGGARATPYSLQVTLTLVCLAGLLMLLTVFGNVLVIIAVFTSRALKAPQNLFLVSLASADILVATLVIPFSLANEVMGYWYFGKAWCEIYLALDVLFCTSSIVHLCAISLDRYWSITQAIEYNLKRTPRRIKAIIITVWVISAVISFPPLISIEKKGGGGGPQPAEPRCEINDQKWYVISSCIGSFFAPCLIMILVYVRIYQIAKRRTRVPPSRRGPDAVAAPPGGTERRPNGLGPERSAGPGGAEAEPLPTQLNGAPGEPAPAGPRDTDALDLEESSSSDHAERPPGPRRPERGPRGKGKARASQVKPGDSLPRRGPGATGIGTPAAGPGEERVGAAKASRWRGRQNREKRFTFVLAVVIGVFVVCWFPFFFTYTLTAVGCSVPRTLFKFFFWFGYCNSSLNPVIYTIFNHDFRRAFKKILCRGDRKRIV
Assay: Binding at human α2A adrenergic receptor
Conditions: read-out: hα2A Ki
attributeMeasured: Ki (µM)
Provide only the numeric value, understood in µM.

Looking for the measured Ki of `O=C1C(=Nc2cccc(C(F)(F)F)c2)c2ccccc2N1c1ccccc1` , can you help?
21.9

###

Molecular target: human H1 histamine receptor (Homo sapiens, UniProt P35367)
Sequence (P35367 whole entry): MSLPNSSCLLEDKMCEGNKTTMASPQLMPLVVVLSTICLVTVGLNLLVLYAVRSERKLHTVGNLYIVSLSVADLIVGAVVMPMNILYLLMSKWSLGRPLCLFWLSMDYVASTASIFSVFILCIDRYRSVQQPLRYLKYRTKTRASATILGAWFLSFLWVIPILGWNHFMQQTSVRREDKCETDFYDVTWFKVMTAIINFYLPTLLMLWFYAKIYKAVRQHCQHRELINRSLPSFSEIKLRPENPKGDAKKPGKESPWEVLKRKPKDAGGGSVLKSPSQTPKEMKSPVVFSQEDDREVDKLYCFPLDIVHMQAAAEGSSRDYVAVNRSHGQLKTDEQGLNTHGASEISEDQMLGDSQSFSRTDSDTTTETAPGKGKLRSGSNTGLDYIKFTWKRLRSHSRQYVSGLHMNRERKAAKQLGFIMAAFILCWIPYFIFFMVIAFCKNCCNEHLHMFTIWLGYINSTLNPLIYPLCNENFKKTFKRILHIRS
attributeMeasured: Ki (µM)
The response must be a number in µM with no trailing unit.

Lab note: need Ki with human H1 histamine receptor (Homo sapiens, UniProt P35367) for entry `O=C1C(=Nc2cccc(C(F)(F)F)c2)c2ccccc2N1c1ccccc1` , please look it up.
39.9

###

Biological target: human GAL2 receptor (Homo sapiens)
Construct: expressed in transfected cells
Sequence (O43603 whole entry): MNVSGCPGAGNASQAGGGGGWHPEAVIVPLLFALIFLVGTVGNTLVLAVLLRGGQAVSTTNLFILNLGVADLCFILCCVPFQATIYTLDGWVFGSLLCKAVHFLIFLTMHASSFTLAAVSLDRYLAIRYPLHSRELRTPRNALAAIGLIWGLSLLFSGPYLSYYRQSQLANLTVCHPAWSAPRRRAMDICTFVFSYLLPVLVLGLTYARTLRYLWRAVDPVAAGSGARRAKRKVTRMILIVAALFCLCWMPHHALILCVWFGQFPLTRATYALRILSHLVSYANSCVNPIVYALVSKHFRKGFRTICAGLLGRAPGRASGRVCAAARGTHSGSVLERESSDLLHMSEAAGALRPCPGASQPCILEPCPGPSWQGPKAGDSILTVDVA
Assay: Radioligand binding at cloned human GAL2 receptor
Settings: indolones, Table 4, read-out: Ki (nM) GalR 2
attributeMeasured: Ki

Quick one: Ki of `O=C1C(=Nc2cccc(C(F)(F)F)c2)c2ccccc2N1c1ccccc1` ?
> 10000 nM

###

Target: human GAL1 receptor (Homo sapiens)
Construct: expressed in transfected cells
Experiment: Radioligand binding at cloned human GAL1 receptor
Conditions: indolones, Table 4, read-out: Ki (nM) GalR 1
attributeMeasured: Ki

Entry O=C1C(=Nc2cccc(C(F)(F)F)c2)c2ccccc2N1c1ccccc1 [Example 92] has what Ki?
> 10000 nM

###

Target: UniProtKB P18825
Sequence (P18825 1-462): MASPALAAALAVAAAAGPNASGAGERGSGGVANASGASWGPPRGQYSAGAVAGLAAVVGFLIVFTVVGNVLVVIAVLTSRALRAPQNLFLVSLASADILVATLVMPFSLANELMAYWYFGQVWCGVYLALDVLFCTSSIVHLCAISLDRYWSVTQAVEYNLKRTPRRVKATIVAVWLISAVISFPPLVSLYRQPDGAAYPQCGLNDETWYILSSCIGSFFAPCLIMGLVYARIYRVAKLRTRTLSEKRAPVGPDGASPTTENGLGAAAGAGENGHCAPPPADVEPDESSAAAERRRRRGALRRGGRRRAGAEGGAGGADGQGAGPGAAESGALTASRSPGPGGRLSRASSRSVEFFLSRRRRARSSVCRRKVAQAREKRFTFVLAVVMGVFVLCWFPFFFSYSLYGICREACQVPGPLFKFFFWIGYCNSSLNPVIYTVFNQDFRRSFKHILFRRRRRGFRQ
attributeMeasured: Ki

Please give the measured Ki for this compound: `O=C1C(=Nc2cccc(C(F)(F)F)c2)c2ccccc2N1c1ccccc1`
> 50 µM

###

Tested on: Male Sprague-Dawley rats
Test: Rat Forced Swim Test (FST)
Format: in vivo
Conditions: 10 mg/kg p.o., single administration 1 hr before 5 min test
Overview of reported Climbing across a group of compounds:

                                   compound            result
0  Cc1ccc(Nc2cc(N3CCCCC3)nc(N(C)CCc3ccccc3)n2)cc1  2.9 ± 0.5 counts

Now consider a different compound.
GET /values?readout=Climbing&item= CN(C)c1cc(Nc2ccc(Cl)c(Cl)c2)nc(N2CCN(Cc3ccccc3)CC2)n1 [EX151]
2.2 ± 0.5 counts

###

Target: human 5HT1A receptor (Homo sapiens, UniProt P08908)
Sequence (P08908 1-422): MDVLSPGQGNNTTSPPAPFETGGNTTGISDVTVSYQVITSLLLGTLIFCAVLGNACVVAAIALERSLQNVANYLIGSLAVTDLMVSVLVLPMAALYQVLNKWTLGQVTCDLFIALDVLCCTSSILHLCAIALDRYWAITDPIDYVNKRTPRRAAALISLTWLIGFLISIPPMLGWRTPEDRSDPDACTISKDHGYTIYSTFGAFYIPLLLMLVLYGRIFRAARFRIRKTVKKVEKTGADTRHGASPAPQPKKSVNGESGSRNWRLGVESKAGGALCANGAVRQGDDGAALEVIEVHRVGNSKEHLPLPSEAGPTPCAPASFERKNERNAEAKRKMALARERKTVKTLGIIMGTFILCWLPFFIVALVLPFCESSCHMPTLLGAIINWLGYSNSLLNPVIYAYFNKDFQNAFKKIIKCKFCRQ
attributeMeasured: Ki

What value of Ki has been reported for the following compound? `O=C1C(=Nc2cccc(C(F)(F)F)c2)c2ccccc2N1c1ccccc1`
> 50 µM

Look up Ki for this compound: `Cc1ccc(Nc2cc(N3CCCCC3)nc(N3CCN(c4ncccc4C(F)(F)F)CC3)n2)cc1`
> 50 µM

###

Target: human GAL1 receptor (Homo sapiens)
Construct: expressed in transfected cells
Assay: Radioligand binding at cloned human GAL1 receptor
Settings: pyrimidines, Tables 1-3, read-out: Ki (nM) GalR1
attributeMeasured: Ki (nM)
Write it as a number; the unit nM goes unstated.

Param item = N^2-[2-(1H-INDOL-3-YL)ETHYL]-N^2,N^4,N^4-TRIMETHYL-(2-NAPHTHYL)-6-(1-PIPERIDINYL)-2,4,6-PYRIMIDINETRIAMINE [Example 79] ; retrieve measured Ki.
3800

###

Molecular target: rat D3 receptor (Rattus norvegicus, UniProt P19020)
Sequence (P19020 whole entry): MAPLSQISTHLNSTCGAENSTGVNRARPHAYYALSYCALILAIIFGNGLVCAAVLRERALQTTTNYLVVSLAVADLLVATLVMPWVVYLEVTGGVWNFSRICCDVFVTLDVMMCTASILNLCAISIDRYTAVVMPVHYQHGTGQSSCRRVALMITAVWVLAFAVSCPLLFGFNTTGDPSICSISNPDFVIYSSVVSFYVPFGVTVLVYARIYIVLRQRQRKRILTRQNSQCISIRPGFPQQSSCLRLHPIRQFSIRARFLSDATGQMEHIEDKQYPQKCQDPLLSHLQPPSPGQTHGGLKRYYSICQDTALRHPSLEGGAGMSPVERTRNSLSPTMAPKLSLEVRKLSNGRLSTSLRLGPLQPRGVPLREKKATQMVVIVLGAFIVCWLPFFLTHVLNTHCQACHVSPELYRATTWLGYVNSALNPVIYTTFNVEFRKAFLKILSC
attributeMeasured: Ki (µM)
Write down the numeric answer in µM and omit the unit.

Return Ki measured with rat D3 receptor (Rattus norvegicus, UniProt P19020) given this molecule: O=C1C(=Nc2cccc(C(F)(F)F)c2)c2ccccc2N1c1ccccc1 [Example 92]
48.2

###

Molecular target: human α1B adrenergic receptor (Homo sapiens, UniProt P35368)
Sequence (P35368 whole entry): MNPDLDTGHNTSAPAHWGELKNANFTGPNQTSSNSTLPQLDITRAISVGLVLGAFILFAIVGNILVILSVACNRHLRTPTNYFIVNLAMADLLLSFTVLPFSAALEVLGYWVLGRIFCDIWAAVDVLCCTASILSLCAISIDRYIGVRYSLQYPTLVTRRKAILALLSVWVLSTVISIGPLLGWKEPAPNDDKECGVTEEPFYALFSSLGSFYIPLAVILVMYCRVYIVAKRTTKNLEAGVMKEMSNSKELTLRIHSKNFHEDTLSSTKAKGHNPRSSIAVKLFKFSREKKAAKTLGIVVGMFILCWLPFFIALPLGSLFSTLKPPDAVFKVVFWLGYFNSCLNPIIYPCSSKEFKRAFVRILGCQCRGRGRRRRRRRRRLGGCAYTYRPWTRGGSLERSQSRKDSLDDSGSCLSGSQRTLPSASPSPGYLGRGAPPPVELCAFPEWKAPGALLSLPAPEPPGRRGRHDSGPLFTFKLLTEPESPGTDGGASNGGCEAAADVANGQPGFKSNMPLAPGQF
pKi: −log10 of the molar value.
attributeMeasured: pKi

Please tell me: pKi of O=C1C(=Nc2cccc(C(F)(F)F)c2)c2ccccc2N1c1ccccc1 [Example 92] , system human α1B adrenergic receptor (Homo sapiens, UniProt P35368)?
< 4.30

###

Molecular target: human dopamine D2 receptor (Homo sapiens)
Sequence (P14416 whole entry): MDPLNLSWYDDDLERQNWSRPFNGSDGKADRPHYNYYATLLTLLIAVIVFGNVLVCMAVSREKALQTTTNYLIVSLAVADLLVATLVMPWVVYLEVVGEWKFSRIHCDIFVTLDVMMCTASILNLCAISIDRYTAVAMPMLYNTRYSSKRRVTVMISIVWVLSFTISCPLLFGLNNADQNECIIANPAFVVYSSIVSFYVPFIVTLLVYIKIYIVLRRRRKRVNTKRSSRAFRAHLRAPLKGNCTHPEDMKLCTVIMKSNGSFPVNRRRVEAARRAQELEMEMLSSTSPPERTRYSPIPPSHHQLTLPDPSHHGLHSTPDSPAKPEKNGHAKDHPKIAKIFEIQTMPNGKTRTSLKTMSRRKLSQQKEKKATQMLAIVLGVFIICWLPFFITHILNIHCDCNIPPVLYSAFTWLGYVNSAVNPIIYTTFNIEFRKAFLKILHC
Experiment: Binding at human dopamine D2 receptor
Details: read-out: hD2 Ki
attributeMeasured: pKi
Please note pKi is a logarithmic value: minus log10 of concentration in mol/L. Answer with that number alone.

Could you tell me which pKi is on file for `O=C1C(=Nc2cccc(C(F)(F)F)c2)c2ccccc2N1c1ccccc1` ?
4.38

###

# maps each entry to its Ki
Biological target: human GAL1 receptor (Homo sapiens, UniProt P47211)
Construct: expressed in transfected cells
Sequence (P47211 whole entry): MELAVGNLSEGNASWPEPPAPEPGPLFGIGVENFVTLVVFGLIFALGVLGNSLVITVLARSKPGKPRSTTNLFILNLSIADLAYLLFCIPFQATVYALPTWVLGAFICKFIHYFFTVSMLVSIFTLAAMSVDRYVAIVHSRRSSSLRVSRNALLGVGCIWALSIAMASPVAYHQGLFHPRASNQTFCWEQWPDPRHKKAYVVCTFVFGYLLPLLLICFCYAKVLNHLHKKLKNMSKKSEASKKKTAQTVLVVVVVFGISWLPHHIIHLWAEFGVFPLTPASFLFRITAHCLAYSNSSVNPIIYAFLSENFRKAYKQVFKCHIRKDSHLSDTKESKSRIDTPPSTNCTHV
Assay: Radioligand binding at cloned human GAL1 receptor
Settings: pyrimidines, Tables 1-3, read-out: Ki (nM) GalR1

A selection of reference data follows.
>>> print(df.to_string())
                                smilesinput                              targetsystem     result
0  Cc1ccc(Nc2cc(N3CCCCC3)nc(N3CCN(c4cccc(C(F)(F)F)n4)CC3)n2)cc1  human GAL1 receptor (Homo sapiens, UniProt P47211)  > 5000 nM
1  Cc1ccc(Nc2cc(N3CCCCC3)nc(N3CCN(Cc4ccccc4)CC3)n2)cc1  human GAL1 receptor (Homo sapiens, UniProt P47211)  > 5000 nM
2  Cc1ccc(Nc2cc(N(C)C)nc(N(C)c3ccc(C)cc3)n2)cc1  human GAL1 receptor (Homo sapiens, UniProt P47211)  > 5000 nM
3    Cc1ccc(Nc2cc(N(C)C)nc(Nc3ccccc3)n2)cc1  human GAL1 receptor (Homo sapiens, UniProt P47211)  > 5000 nM
4  Cc1ccc(Nc2cc(N(C)C)nc(N3CCN(c4ccccc4C)CC3)n2)cc1  human GAL1 receptor (Homo sapiens, UniProt P47211)  > 5000 nM

Request the reported Ki associated with `CN(C)c1cc(Nc2ccc(Br)cc2)nc(Nc2ccccc2)n1`
> 5000 nM
